Data credit: patent US11192914B2

Tested on: Vero cells
Test: Cytotoxicity in Vero cells (XTT)
Assay type: cell-based, African green monkey
measured endpoint: CC50

For record CC1(O)C(O)[C@@H](CO)O[C@H]1n1cnc2c(N)ncnc21 (stereo partly shown) [drawing 675] the listed CC50 is > 100 µM

----------
Test system: ZIKV
Assay: ZIKV infectious (cytoprotection, XTT) assay
Type: cell-based, Zika virus
Details: Zika virus, Vero, ZIKV infectious assay, Vero cells; read-out: ZIKV EC50
measured endpoint: pEC50
Answers are plain numbers, as −log10 of the molar value.

For orientation, consider the following solved cases.
CC1(O)C(O)[C@@H](CO)O[C@H]1n1cnc2c(N)ncnc21 (stereo partly drawn) [drawing 678] | 5.56
C#CC1(O)C(O)[C@@H](CO)O[C@H]1n1ccc2c(N)ncnc21 (stereo partly drawn) | 6.47
CC1(O)C(O)[C@@H](CO)O[C@H]1n1ccc(N)nc1=O (stereo partly drawn) | 6.89

# batch: return pEC50 for each of the 3 compounds below
1. C#CC1(O)C(O)[C@@H](COP(=O)(OCOC(=O)C(C)(C)C)OCOC(=O)C(C)(C)C)O[C@H]1n1ccc(=O)[nH]c1=O (stereo partly drawn) [drawing 679]
2. CC(C)(C)C(=O)OCOP(=O)(OCOC(=O)C(C)(C)C)OC[C@H]1O[C@@H](n2ccc(=O)[nH]c2=O)C(C)(O)C1O (stereo partly drawn)
3. CC1(O)C(O)[C@@H](CO)O[C@H]1n1cnc2c(=O)[nH]c(N)nc21 (stereo partly drawn)

Result string:
[5.97, 5.45, 5.14]
